This section presents molecules with their documented dCas9 with SSAP activity (normalized) values.
- Tested on: gene editing with dCas9
- Experiment: Screen of 322 new SSAP proteins, gene editing activity with dCas9 (Table 5)
- Type: cell-based
- Reported conditions: normalized
Please give the numeric answer without any surrounding text.

Here is how some molecules turned out for dCas9 with SSAP activity (normalized).
SSAP_23: SEQ ID NO: 192 (protein) TNNQLATQIKRDITTDPSLLTGADIKKYFDPQNLLTEKQVGQALALCKGRNLNPFANEVYIVAYQNNSGTEFSLIVSKEAFMKRAERCEGYDGFEAGITVMRNGEMIEIEGSLKLPEDILIGGWAVVYRKDRSHRYKVTVDFNEYVKTDRNGNPRSTWKSMPATMIRKTALVQTLREAFPDELGNMYTDIDGGDTFDAIKDVTPQESREDVVARKMAQIDQFNKEQEANHADPEPTQNEDPIQGELLDGELEY = −0.450
SSAP_290: SEQ ID NO: 459; Anaerovirgula multivorans (protein, Anaerovirgula multivorans) DAKHLTVVHQNLNTLLKAKADALPKGFNQTRFLQNCMTVLQDTKDIESVEPKSVARTMLKGAFLGLDFFNKECYAIVYNKKAGNSWIKTLEFQTDYKGEIKLAKKYSINTIKDIYAKLVREGDEFEEGVKDGKQVINFKPKPFNNNKILGAFAVAYYENGSMIYDTMSVEEIESVKKAYAKADKEGKYSKAWIESTGEMYKKTVLRRLCKLIELDFDTIEQKQAFDEGSGMEFKQEGKTDKPKSSLEAEFVEAEYEEVEESETSEVVEE = −0.681

// lookup dCas9 with SSAP activity (normalized) for SSAP_166: SEQ ID NO: 335; Blautia sp. OF03-15BH (protein, listed as Blautia sp.) NVKEELAQKAEITQKEVKLKKSMSISDMIRALQPEIKKALPSVVTPERFIRMALSALNTTPKLAECSQISVLAALMNAAQLGLEPNTPMGQAYLIPFNNKGKMECQFQIGYKGLLELVYRNPAIQIIQAQTVYENDYFEYELGLNSRLIHRPELEDRGEIRLFYGLFKMVNGGYGFEVMSRQEMDQYAARYSKSFASGFSPWENNYEDMAKKTMIKRVLKYAPVKIETARALINDESIKLHLSEDMSEVENETVVDGQAEEKAA −0.934

// lookup dCas9 with SSAP activity (normalized) for SSAP_237: SEQ ID NO: 406; Paenibacillus popilliae ATCC 14706 (protein, listed as Paenibacillus popilliae) STSHLLTIHNNLEKLIDSKREAMPKSFNKTRFLQNCMTVLQDTKDVGKCDPQSVARTLLKGAFLGLDFFNKECYAITYGGSVQFQTDYKGEKKLAKKYSVRPVKDIYAKLVREGDEFIEEIKDGQPTVQFKPLPFNDSEIKGAFAVSLFEDDGLAYEVMSVAEIELTRKNYSKQPNGQAWVKSKGEMYKKTVLRRLCKNIELDFDTIEQAQAFEDSSDFEFNKEPKQAQQSPLNPQATVIDAEYEEVKEESDNETNQE −0.512
